Test: Volume of distribution at steady state in po and iv dosed rat
Type: ADME, organism-based
Conditions: in vivo, read-out: Vdss
Assign Vd to each entry below.
One number for each entry, in L/kg.

CCOc1ccc(C2CN(C)Cc3cc(OCCCN4CCC(F)CC4)ccc32)cc1 (centres undefined) ... 15.5
CSc1ccc(C2CN(C)Cc3cc(OCCCN4CCOCC4)ccc32)cc1 (racemic) ... 5.1
COc1ccc([C@@H]2CN(C)Cc3cc(OCCCN4CCOC[C@@H]4C)ccc32)cc1 ... 6.8

Kindly note the recorded Vd for CSc1ccc(C2CN(C)Cc3cc(OCCCN4CCC(F)CC4)ccc32)cc1 (racemic) , which is 9.6

---

Target: Sodium-dependent noradrenaline transporter (Homo sapiens, UniProt P23975)
Sequence (P23975 whole entry): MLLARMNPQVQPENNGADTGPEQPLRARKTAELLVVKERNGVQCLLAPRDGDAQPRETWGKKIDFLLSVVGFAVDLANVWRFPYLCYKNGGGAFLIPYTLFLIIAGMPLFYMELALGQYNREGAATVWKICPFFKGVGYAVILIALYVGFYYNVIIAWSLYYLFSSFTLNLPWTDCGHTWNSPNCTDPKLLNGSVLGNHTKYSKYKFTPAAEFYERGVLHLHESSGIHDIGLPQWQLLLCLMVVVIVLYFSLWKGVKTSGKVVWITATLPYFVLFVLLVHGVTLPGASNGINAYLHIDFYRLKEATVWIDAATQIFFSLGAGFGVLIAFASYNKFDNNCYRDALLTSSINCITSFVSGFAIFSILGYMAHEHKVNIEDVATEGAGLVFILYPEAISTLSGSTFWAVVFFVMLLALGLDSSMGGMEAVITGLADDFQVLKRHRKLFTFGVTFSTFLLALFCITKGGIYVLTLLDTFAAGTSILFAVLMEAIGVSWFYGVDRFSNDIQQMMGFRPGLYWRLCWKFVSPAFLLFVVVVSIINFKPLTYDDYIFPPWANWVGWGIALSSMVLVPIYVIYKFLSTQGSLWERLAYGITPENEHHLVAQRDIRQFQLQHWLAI
Test: Inhibition of [3H]nisoxetine uptake in human NET expressed in MDCK cells
ENDPOINT: Ki

CSc1ccc(C2CN(C)Cc3cc(OCCCN4CCOCC4)ccc32)cc1 (racemic) ... 106 nM
COc1ccc([C@@H]2CN(C)Cc3cc(OCCCN4CCOC[C@@H]4C)ccc32)cc1 ... 121 nM

# evaluate next
// compound CSc1ccc(C2CN(C)Cc3cc(OCCCN4CCC(F)CC4)ccc32)cc1 (racemic) , assay Sodium-dependent noradrenaline transporter (Homo sapiens, UniProt P23975), Ki value: 118 nM

---

Biological target: Sodium-dependent serotonin transporter (Rattus norvegicus, UniProt P31652)
Sequence (P31652 whole entry): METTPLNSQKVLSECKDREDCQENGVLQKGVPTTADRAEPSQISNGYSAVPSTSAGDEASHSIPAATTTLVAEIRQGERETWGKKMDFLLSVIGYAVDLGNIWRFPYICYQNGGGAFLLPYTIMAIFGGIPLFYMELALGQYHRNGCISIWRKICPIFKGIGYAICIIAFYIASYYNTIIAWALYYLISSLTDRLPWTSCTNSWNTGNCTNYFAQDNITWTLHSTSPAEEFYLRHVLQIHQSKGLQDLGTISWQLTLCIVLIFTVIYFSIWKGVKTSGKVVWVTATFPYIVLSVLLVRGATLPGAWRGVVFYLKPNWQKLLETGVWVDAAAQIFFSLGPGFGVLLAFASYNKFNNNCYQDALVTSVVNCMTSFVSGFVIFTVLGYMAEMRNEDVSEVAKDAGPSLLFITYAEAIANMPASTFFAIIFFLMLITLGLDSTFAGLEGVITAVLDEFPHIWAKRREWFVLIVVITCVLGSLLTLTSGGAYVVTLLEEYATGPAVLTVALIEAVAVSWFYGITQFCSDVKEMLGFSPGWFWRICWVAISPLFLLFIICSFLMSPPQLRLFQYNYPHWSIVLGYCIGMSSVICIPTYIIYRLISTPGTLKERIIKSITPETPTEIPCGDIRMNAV
API: label(entry) gives criterion met if the entry's Ki is strictly smaller than 8 nM; on equality or larger values it gives criterion not met.

COc1ccc(C2CN(C)Cc3cc(OCCCN4CCC(F)CC4)ccc32)cc1 (single isomer, unassigned; (-)) ... criterion met
CSc1ccc(C2CN(C)Cc3cc(OCCCN4CCC(F)CC4)ccc32)cc1 (stereo in doubt; 12o) ... criterion met

Then this compound:
Please check: Ki for COc1ccc(C2CN(C)Cc3cc(OCCCN4CCC(F)CC4)ccc32)cc1Cl (stereo not drawn) , strictly under 8 nM or not?
criterion met

---

Assign Cmax to each entry below.
Test: Cmax in rat brain at 10 mg/kg, po
Type: ADME, organism-based
Parameters: dose 10 mg/kg, route oral
Give bare numbers, in nM.

Some solved cases for reference:
CSc1ccc(C2CN(C)Cc3cc(OCCCN4CCC(F)CC4)ccc32)cc1 (racemic) ... 2400
CSc1ccc(C2CN(C)Cc3cc(OCCCN4CCOCC4)ccc32)cc1 (racemic) ... 9600

# evaluate next
Kindly note the recorded Cmax for COc1ccc(C2CN(C)Cc3cc(OCCCN4CCC(F)CC4)ccc32)cc1 (racemic) , which is 1500

---

Assay: Bioavailability in po dosed rat
Assay type: ADME, organism-based
Conditions: in vivo
Assign bioavailability to each entry below.
Answers are plain numbers, in %.

Report bioavailability for every entry below.
1. CCOc1ccc(C2CN(C)Cc3cc(OCCCN4CCC(F)CC4)ccc32)cc1 (centres undefined)
2. COc1ccc([C@@H]2CN(C)Cc3cc(OCCCN4CCOC[C@@H]4C)ccc32)cc1
3. CSc1ccc(C2CN(C)Cc3cc(OCCCN4CCC(F)CC4)ccc32)cc1 (racemic)
4. CSc1ccc(C2CN(C)Cc3cc(OCCCN4CCOCC4)ccc32)cc1 (racemic)

1: 11; 2: 5; 3: 21; 4: 38

---

Assign Ki to each entry below.
Target: Sodium-dependent serotonin transporter (Homo sapiens)
Sequence (P31645 whole entry): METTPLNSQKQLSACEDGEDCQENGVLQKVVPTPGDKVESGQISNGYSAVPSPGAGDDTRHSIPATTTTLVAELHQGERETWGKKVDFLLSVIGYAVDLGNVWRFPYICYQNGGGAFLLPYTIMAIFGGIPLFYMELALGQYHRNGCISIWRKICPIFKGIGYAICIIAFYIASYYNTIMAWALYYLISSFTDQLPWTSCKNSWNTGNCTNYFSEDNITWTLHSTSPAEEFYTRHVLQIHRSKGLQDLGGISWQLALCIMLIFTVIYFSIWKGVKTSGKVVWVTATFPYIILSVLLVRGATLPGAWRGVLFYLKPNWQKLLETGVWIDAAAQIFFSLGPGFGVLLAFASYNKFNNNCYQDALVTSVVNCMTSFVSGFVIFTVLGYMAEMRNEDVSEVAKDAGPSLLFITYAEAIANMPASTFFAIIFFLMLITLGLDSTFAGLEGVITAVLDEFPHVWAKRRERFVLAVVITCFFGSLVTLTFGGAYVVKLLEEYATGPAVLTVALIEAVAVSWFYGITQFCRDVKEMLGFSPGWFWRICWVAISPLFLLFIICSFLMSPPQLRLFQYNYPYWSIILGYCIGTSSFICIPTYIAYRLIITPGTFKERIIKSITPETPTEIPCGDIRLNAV
Test: Binding affinity at human SERT
Numbers only, in µM.

Some solved cases for reference:
CN1Cc2cc(OCCCN3CCC(F)CC3)ccc2C(c2ccccc2Cl)C1 (stereo not given) ... 0.018
COc1ccc(C2CN(C)Cc3cc(OCCCN4CCC(F)CC4)ccc32)cc1Cl (stereo not given) ... 0.0057
CN1Cc2cc(OCCCN3CCC(F)CC3)ccc2C(c2ccc(S(C)(=O)=O)cc2)C1 (stereo not given) ... 0.135
CN1Cc2cc(OCCCN3CCC(F)CC3)ccc2C(c2ccc(C#N)cc2)C1 (stereo not given) ... 0.016

# evaluate next
// compound CN1Cc2cc(OCCCN3CCC(F)CC3)ccc2C(c2cc(Cl)ccc2Cl)C1 (stereo not given) , assay Sodium-dependent serotonin transporter (Homo sapiens), Ki value: 0.107
